- system: human Cdc7-Dbf4 kinase (Cdc7-Dbf4 heterodimer) (Homo sapiens)
- Sequence (O00311 whole entry): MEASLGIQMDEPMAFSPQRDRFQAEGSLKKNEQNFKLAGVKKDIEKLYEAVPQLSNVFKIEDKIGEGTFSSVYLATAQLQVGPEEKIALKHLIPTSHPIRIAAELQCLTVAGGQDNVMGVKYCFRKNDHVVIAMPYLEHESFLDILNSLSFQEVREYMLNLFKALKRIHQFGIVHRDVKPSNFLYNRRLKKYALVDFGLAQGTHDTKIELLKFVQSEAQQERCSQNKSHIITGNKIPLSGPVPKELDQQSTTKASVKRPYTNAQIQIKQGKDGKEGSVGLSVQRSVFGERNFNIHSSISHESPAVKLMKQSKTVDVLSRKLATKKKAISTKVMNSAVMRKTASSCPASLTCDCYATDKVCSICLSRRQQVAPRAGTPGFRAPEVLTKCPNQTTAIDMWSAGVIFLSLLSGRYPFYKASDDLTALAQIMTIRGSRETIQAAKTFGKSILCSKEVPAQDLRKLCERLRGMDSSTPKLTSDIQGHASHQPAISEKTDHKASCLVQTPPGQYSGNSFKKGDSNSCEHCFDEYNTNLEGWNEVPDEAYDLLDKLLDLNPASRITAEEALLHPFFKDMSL
- Sequence (Q9UBU7 whole entry partner): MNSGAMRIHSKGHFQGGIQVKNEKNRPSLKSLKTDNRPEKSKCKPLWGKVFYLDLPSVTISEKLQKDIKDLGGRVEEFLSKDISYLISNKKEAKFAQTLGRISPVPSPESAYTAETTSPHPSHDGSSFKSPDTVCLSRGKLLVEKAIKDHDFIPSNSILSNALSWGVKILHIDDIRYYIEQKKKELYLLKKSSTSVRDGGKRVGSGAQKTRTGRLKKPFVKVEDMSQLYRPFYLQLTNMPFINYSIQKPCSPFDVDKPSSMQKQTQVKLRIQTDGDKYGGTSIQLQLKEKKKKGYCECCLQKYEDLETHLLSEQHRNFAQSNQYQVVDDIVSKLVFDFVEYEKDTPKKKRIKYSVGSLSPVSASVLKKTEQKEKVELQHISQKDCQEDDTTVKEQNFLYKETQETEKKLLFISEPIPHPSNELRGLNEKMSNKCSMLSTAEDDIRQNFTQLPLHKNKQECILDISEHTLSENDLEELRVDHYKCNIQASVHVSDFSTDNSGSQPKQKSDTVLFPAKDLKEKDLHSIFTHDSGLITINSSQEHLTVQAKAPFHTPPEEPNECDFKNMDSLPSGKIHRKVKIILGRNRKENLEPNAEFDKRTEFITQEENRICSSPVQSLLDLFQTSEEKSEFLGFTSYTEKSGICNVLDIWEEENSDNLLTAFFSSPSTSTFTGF
- test description: Cdc7-Dbf4 kinase assay with the LUM method
- Assay type: biochemical
- settings: LUM method, 12.5 μM ATP, up to 77 μM compound, duplicate; N.E. = no effect
Where a name gives a salt, the structure may show the parent alone.
measure name: ADP production IC50

Illustrative cases are given below, each with its answer.
- compound: "O=c1c(O)c(-c2ccc(O)c(O)c2)oc2cc(O)ccc12"
  ADP production IC50: "N.E."
- compound: "O=C(CCCCC(=O)Nc1c(I)cc(I)c(C(=O)O)c1I)Nc1c(I)cc(I)c(C(=O)O)c1I [Iodipamide, reference compound]"
  ADP production IC50: "N.E."
- compound: "O=c1c(O)cccc2cc(O)c(O)c(O)c12"
  ADP production IC50: "N.E. ^1"
- compound: "CCOC(=O)[C@H](CCc1ccccc1)N[C@@H](C)C(=O)N1CCC[C@H]1C(=O)O [Enalapril maleate, reference compound]"
  ADP production IC50: "N.E. ^1"

Write down the reported ADP production IC50 (system: human Cdc7-Dbf4 kinase (Cdc7-Dbf4 heterodimer) (Homo sapiens)) of O=c1cc(-c2cc(O)c(O)c(O)c2)oc2cc(O)cc(O)c12
N.E.

* * *

- test description: Solubility by laser nephelometry
- settings: dilutions up to 77 μM
Structures can show the parent of a compound that is named as a salt.

- compound: "O=c1c(O)c(-c2ccc(O)c(O)c2)oc2cc(O)cc(O)c12"
  Solubility: "Soluble"
- compound: "O=C(O[C@@H]1Cc2c(O)cc(O)cc2O[C@@H]1c1cc(O)c(=O)c2c(O)c(O)cc([C@H]3Oc4cc(O)cc(O)c4C[C@H]3O)c2c1)c1cc(O)c(O)c(O)c1"
  Solubility: "Soluble"
- compound: "CCOC(=O)[C@H](CCc1ccccc1)N[C@@H](C)C(=O)N1CCC[C@H]1C(=O)O [Enalapril maleate, reference compound]"
  Solubility: "Soluble"

* * *

- test description: Solubility by laser nephelometry
- settings: dilutions up to 77 μM
measure name: Solubility

Here are 10 compounds together with their reported answers.
- compound: "O=c1c(O)cccc2cc(O)c(O)c(O)c12"
  Solubility: "Soluble"
- compound: "CC(=O)Oc1cc(-c2coc3cc(OC(C)=O)c(OC(C)=O)c(OC(C)=O)c3c2=O)cc(OC(C)=O)c1OC(C)=O [Iriginol hexaaceatate]"
  Solubility: "Soluble"
- compound: "O=c1cc(-c2cc(O)c(O)c(O)c2)oc2cc(O)cc(O)c12"
  Solubility: "Soluble"
- compound: "N=C1C=CC(=C(c2ccc(N)cc2)c2ccc(N)cc2)C=C1 [Pararosaniline pamoate, reference compound]"
  Solubility: "Soluble"
- compound: "O=c1c(O)c(-c2ccc(O)c(O)c2)oc2cc(O)ccc12"
  Solubility: "Soluble"
- compound: "O=c1c(-c2cc(O)c(O)c(O)c2)coc2cc(O)c(O)c(O)c12"
  Solubility: "Soluble"
- compound: "O=c1oc2c(O)c(O)cc3c(=O)oc4c(O)c(O)cc1c4c23"
  Solubility: "Soluble"
- compound: "O=c1c(O)c(-c2cc(O)c(O)c(O)c2)oc2cc(O)cc(O)c12"
  Solubility: "Soluble"
- compound: "CN(C)c1ccc(C(=C2C=CC(=[N+](C)C)C=C2)c2ccc(N(C)C)cc2)cc1 [Gentian violet, reference compound]"
  Solubility: "Soluble"
- compound: "O=C(CCCCC(=O)Nc1c(I)cc(I)c(C(=O)O)c1I)Nc1c(I)cc(I)c(C(=O)O)c1I [Iodipamide, reference compound]"
  Solubility: "Soluble"

Give me measured Solubility, please, for this compound: O=C1C=C2CC3(O)COc4c(ccc(O)c4O)C3=C2C=C1O (stereo not shown)
Soluble

Note Solubility for the compound shown: O=C(O[C@@H]1Cc2c(O)cc(O)cc2O[C@@H]1c1cc(O)c(O)c(O)c1)c1cc(O)c(O)c(O)c1 [Epigallocatechin-3-monogallate]
Soluble

Supply measured Solubility of O=C(O)/C=C/c1ccc(O)c(O)c1 in your reply.
Soluble
